subjectOfTest: T1, rat serum albumin (rat, UniProt P02770 25-608)
T1 construct: bought protein, amine-coupled to a CM5 chip; also called Rat SA; RSA
procedureSummary: SPR (Biacore 8K), albumin immobilised, 25 C, 1:1 kinetics
measure: kon (M⁻¹ s⁻¹)
Answers are plain numbers, in M⁻¹ s⁻¹.

QUERY: Please supply the value of reported kon for the item INS Analog 27 (other, single-chain insulin B-L2-A-L1-VHH fusion; also called Ex. 27) FVSQHLCGSHLVEALRLVCGERGFFYTPKTGGGGGGGIVEQCCHSICSLYQLENYCGGGGGQGGGGQGGGGQGGGGQGGGGQEVQLLESGGGLVQPGGSLRLSCAASGRYIDETAVAWFRQAPGKEREFVAGIGGGVDITYYADSVKGRFTISRDNSKNTLYLQMNSLRPEDTAVYYCAARPGRPLITSKVADLYPYWGQGTLVTVSSPP
RESULT: 190000
